- targetEntity: Human HER3, endogenous, on human cancer cell lines (SK-Br-3, MCF7, BT-474) (human, UniProt P21860 20-1342)
- Sequence (P21860 20-1342): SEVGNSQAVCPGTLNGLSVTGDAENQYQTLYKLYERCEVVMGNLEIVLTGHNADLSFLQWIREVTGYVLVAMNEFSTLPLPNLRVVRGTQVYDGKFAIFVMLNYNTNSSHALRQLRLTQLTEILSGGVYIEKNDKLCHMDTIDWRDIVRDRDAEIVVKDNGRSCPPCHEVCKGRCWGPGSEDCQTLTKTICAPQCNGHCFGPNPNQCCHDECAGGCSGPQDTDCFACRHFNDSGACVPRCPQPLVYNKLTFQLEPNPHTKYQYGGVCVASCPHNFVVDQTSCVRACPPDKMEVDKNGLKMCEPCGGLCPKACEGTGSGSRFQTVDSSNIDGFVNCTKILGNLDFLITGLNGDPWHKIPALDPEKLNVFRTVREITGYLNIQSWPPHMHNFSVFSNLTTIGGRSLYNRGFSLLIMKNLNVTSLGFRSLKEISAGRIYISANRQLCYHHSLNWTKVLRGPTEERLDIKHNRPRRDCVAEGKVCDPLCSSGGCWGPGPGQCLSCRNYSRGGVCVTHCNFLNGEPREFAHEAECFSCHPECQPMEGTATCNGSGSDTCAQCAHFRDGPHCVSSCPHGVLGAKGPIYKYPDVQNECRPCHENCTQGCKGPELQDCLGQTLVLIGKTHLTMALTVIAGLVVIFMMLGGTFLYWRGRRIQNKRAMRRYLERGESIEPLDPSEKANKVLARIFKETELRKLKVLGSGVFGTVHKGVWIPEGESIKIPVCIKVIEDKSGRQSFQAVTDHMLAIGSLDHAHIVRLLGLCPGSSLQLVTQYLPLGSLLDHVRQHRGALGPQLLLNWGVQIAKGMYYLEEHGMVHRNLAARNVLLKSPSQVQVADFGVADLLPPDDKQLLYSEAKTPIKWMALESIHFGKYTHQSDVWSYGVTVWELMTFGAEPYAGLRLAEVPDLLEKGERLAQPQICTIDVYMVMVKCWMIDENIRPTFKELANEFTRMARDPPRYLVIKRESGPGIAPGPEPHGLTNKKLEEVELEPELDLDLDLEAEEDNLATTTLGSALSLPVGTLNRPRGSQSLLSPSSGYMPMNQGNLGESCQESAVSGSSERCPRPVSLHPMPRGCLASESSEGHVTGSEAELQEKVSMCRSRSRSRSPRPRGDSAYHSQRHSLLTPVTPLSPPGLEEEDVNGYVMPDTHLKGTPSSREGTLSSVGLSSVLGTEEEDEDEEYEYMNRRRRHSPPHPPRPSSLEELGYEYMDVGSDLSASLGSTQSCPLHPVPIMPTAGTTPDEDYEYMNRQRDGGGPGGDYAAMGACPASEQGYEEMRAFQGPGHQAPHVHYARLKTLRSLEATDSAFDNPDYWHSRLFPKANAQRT
- measurementNotes: cell-based or functional assay
Each entry below carries its reported MCF7 pHER3 % inhibition.
readoutType: MCF7 pHER3 % inhibition (%)

[[record]]
binder = "MOR13871 (antibody, human IgG1, kappa, V domains shown, tested as IgG) VH: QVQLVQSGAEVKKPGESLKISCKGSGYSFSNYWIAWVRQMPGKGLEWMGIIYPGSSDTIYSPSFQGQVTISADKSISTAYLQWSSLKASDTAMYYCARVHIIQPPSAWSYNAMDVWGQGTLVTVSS VL: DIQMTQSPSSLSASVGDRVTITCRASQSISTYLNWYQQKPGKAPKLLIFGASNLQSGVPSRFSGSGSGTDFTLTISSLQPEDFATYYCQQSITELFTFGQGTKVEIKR"
readouttype = "MCF7 pHER3 % inhibition"
observed = 74

[[record]]
binder = "MOR12925 (antibody, human IgG1, kappa, V domains shown, tested as IgG) VH: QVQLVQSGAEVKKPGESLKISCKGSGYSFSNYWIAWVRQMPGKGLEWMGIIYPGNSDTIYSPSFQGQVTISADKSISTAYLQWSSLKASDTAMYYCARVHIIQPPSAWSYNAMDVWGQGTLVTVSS VL: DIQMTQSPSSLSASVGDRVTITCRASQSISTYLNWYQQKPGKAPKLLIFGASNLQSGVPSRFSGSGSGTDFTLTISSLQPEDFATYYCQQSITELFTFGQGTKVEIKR"
readouttype = "MCF7 pHER3 % inhibition"
observed = 81

[[record]]
binder = "MOR13870 (antibody, human IgG1, kappa, V domains shown, tested as IgG) VH: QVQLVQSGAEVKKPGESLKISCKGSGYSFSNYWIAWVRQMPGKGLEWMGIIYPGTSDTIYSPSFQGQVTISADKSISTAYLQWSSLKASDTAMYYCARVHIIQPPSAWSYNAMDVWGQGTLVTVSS VL: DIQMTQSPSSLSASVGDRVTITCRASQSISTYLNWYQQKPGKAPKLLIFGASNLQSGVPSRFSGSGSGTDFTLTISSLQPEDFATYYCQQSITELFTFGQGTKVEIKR"
readouttype = "MCF7 pHER3 % inhibition"
observed = 71

